# Test system: CAL-148
# Protocol Notes: cells
# Format: functional, cell-based, Homo sapiens
# Setup Conditions: Homo sapiens, CAL-148
# Description: SANGER: Inhibition of human CAL-148 cell growth in a cell viability assay.
pIC50: −log10 of the molar value.
So I've got a bunch of compounds here, and I need their pIC50 values.

Recorded results for 3 compounds are shown here.
Compound | pIC50
Cc1ccc(C(=O)Nc2ccc(CN3CCN(C)CC3)c(C(F)(F)F)c2)cc1C#Cc1cnc2cccnn12 | < 6.29
CCCCCCCCCCCC1=C(O)C(=O)C=C(O)C1=O | < 4.49
C=CC(=O)N1CCCC(Nc2nc(Nc3ccc(N(C)C(=O)CC)cc3)nc3[nH]cnc23)C1 (centres undefined) | < 4.99

// below: pIC50 requested for another compound
[Q] State its pIC50: "COc1cc(N2CCC(N3CCN(C)CC3)CC2)ccc1Nc1ncc(Cl)c(Nc2ccccc2S(=O)(=O)C(C)C)n1"
[A] < 5.70
